subject_of_test: mGluR5 (Rattus norvegicus, UniProt P31424)
Sequence (P31424 21-1203): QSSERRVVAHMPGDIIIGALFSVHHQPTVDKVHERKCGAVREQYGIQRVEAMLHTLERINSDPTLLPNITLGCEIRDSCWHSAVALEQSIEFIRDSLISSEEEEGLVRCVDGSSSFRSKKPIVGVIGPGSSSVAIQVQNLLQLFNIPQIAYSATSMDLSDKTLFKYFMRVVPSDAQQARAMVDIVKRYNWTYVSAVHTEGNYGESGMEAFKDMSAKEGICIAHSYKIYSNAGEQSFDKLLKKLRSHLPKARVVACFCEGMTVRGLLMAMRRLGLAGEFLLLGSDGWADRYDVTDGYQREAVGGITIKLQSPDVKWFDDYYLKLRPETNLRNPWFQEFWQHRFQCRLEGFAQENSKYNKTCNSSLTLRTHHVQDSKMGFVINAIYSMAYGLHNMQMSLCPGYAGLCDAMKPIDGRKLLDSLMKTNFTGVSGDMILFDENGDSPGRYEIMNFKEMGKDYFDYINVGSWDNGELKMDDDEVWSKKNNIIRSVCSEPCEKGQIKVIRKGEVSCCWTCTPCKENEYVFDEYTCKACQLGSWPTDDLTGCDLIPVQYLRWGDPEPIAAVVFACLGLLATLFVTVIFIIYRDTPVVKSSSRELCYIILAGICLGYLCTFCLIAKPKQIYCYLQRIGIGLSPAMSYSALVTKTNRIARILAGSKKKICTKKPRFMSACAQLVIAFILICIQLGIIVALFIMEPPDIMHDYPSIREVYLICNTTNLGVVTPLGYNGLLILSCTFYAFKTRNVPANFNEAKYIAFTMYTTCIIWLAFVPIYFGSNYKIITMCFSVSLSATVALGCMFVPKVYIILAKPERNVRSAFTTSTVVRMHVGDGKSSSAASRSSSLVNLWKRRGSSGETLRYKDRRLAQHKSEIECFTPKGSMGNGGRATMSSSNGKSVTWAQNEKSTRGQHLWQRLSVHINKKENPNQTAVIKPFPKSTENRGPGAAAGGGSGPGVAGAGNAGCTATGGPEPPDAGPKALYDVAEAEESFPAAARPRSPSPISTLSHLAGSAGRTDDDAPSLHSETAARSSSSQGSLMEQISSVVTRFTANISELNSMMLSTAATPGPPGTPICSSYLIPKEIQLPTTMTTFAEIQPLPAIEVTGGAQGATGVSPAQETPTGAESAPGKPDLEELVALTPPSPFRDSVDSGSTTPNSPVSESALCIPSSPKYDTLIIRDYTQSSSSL
protocol: mGluR5 functional assay, calcium fluorescence
Type: cell-based
property_name: pIC50
Convention used: pIC50 is expressed as -log10 of the molar concentration.

IN: Output measured pIC50 for this item: Cc1ccc2ccc(-c3cncc(C#N)c3)cc2n1 [compound 30, 5-(2-Methylquinolin-7-yl)nicotinonitrile]
OUT: 7.17

###

subject_of_test: mGluR5 (Rattus norvegicus)
protocol: mGluR5 radioligand displacement binding assay with [3H]MPEP
property_name: Ki (nM)
Field format: number, assumed nM, no unit text.

IN: Output measured Ki for this item: Cc1ccc2ccc(-c3cncc(C#N)c3)cc2n1 [compound 30, 5-(2-Methylquinolin-7-yl)nicotinonitrile]
OUT: 100
